- TESTED TARGET: KRAS_G12D and cRAF (Homo sapiens, UniProt P01116, G12D)
- Construct: purchased
- Sequence (P01116 1-188 isoform P01116-2 G12D): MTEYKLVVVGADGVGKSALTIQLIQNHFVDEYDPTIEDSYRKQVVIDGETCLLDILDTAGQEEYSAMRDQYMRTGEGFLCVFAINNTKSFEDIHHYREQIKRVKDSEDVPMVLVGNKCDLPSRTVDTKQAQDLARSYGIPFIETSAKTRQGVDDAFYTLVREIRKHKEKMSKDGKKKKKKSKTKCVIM
- ASSAY TEXT: Inhibition of KRAS_G12D/cRAF binding (Cisbio binding kit, 665/615 ratio), Effect Embodiment B
- PARTICULARS: read-out: GTP-KRAS-G12D:CRAF IC50
pIC50: −log10 of the molar value. Where a name gives a salt, the structure may show the parent alone.
Threshold check on pIC50: at or above 7 gives 1 (yes), strictly below gives 0 (no).

* Nc1cc(-c2c(Cl)cc3c(N4C[C@H]5CC[C@@H](C4)N5)nc(OCCCN4C5CCC4COC5)nc3c2F)c2ccccc2c1 (single isomer, unassigned) [Compound 192b] | 0 (no)
* CCC(COc1nc(N2CC3CCC(C2)N3)c2cc(Cl)c(-c3cc(O)cc4ccccc34)c(F)c2n1)CN1C2CCC1COC2 (single isomer, unassigned) [Compound 201a] | 1 (yes)
* CN(C)C1CCC(Oc2nc(N3CC4CCC(C3)N4)c3cc(Cl)c(-c4cc(O)cc5ccccc45)c(F)c3n2)C1 (single isomer, unassigned) [Compound 70d, dihydrochloride] | 0 (no)

----------
- TESTED TARGET: KRAS-G12D and SOS1 (Homo sapiens, UniProt P01116, G12D)
- Sequence (P01116 1-188 isoform P01116-2 G12D): as above
- ASSAY TEXT: Inhibition of KRAS-G12D/SOS1 binding (Cisbio binding kit, 665/615 ratio), Effect Embodiment A
- PARTICULARS: read-out: GTP-KRAS-G12D:SOS1 IC50
Where a name gives a salt, the structure may show the parent alone.
REPORTED METRIC: log10(IC50) (log10 of the value in nM)

- CN(C)C1CN(c2nc(N3C[C@@H]4CC[C@H]3CN4)c3cc(Cl)c(-c4cc(O)cc5ccccc45)c(F)c3n2)C1 (single isomer, unassigned) [Compound 4b]: 3.66
- Oc1cc(-c2c(Cl)cc3c(N4CC5CCC(C4)N5)nc(OCCCN4C5CCC4COC5)nc3c2F)c2cc(F)ccc2c1 (single isomer, unassigned): 1.34
- C[C@@H]1C[C@@H](COc2nc(N3CC4CCC(C3)N4)c3cnc(-c4cc(O)cc5ccccc45)c(F)c3n2)N(C)C1: 1.20
- CN(C)C1CCC(Oc2nc(N3CC4CCC(C3)N4)c3cc(Cl)c(-c4cc(O)cc5ccccc45)c(F)c3n2)C1 (single isomer, unassigned) [Compound 70d, dihydrochloride]: 1.97
- C[C@@H](COc1nc(N2CC3CCC(C2)N3)c2cc(Cl)c(-c3cc(O)cc4ccccc34)c(F)c2n1)CN1C2CC3CC1CC(C2)O3 (single isomer, unassigned): 1.20
- CN(C)C1CN(c2nc(N3C[C@H]4CC[C@@H](C3)N4)c3cc(Cl)c(-c4cc(O)cc5ccccc45)c(F)c3n2)C1 (single isomer, unassigned) [Compound 5a]: 1.62
- Oc1cc(-c2c(Cl)cc3c(N4CC5CCC(C4)N5)nc(OCC45CCCN4CCC5)nc3c2F)c2ccccc2c1 (single isomer, unassigned) [Compound 58b]: 4.18
- Oc1cc(-c2cc(F)c3c(N4CC5CCC(C4)N5)nc(OCCCN4C5CCC4COC5)nc3c2F)c2ccccc2c1: 1.80
- CCc1cccc2cccc(-c3c(F)cc4c(N5CC6CCC(C5)N6)nc(OC[C@@]56CCCN5C[C@H](F)C6)nc4c3F)c12 (single isomer, unassigned) [Compound 281a, dihydrochloride]: 1.25
- CN(C)C1CN(c2nc(N3CCC4NCCC43)c3cc(Cl)c(-c4cc(O)cc5ccccc45)c(F)c3n2)C1 (single isomer, unassigned): 2.44
- CCc1c(F)ccc2cc(O)cc(-c3c(Cl)cc4c(N5CC6CCC(C5)N6)nc(OC[C@H](C)CN5C6CCC5COC6)nc4c3F)c12 (single isomer, unassigned) [Compound 233a]: 3.52
- CN(C)CCCCCCOc1nc(N2C[C@H]3CC[C@@H](C2)N3)c2cc(Cl)c(-c3cc(O)cc4ccccc34)c(F)c2n1 (single isomer, unassigned) [Compound 68, dihydrochloride]: 2.33
- CCc1c(F)ccc2cccc(-c3c(F)cc4c(N5CC6CCC(C5)N6)nc(OC[C@@]56CCCN5C[C@H](F)C6)nc4c3F)c12 (single isomer, unassigned) [Compound 280b, dihydrochloride]: 2.49
- CN(C)CCCOc1nc(N2C[C@H]3CC[C@@H](C2)N3)c2cc(Cl)c(-c3cc(O)cc4ccccc34)c(F)c2n1 (single isomer, unassigned) [Compound 40a]: 1.18
- CN1CCC[C@H]1COc1nc(N2C3CCC2C2CCC3N2)c2cc(Cl)c(-c3cc(O)cc4ccccc34)c(F)c2n1 (single isomer, unassigned) [Compound 152a, dihydrochloride]: 3.02
